assay: gradient 5% acetonitrile 3 min, to 50% in 2 min, to 85% in 15 min, held 3 min, 100 µL/min; settings: column: Zorbax Extend-C18 2.1 x 50 mm; eluents: water / acetonitrile, 0.1% formic acid
observed property: RP-LC retention time (s)

CCc1ccc(C(=O)N2CCC(n3c(-c4ccoc4)nc4cccnc43)C2)cc1 (stereo not given)    809
COc1ccccc1N1CCN(CCn2c(=O)c3c(c4ccccc4n3C)n(C)c2=O)CC1    784
Cc1ccc(N2CCC(NC(=O)c3ccccc3)C2=O)cc1 (stereo not given)    794
CC1(C(=O)NCc2ccccc2)CN(S(C)(=O)=O)CC(=O)N1Cc1ccc(F)cc1 (stereo not given)    779
Cc1ccc(NC(=O)Cn2c(C)cc(-c3nnc(C)o3)c2C)c(C)c1    802
